- Test system: HEK-293T
- method_description: Multiplex assay against HEK293T
- Type: toxicity, cell-based
- measurement_conditions: human, 24 h, 1 µM, compound concentration 1 uM, replicate 2

- molecule: "CC(F)(F)CN1CCOc2c(nn(-c3ccccc3Cl)c2-c2ccc(Cl)cc2)C1=O"
  Population Pyknosed Nuclei (%): 8
- molecule: "CN(C)C(=O)Cn1cc(-c2ccc(-c3nnc4ccccn34)cc2)cn1"
  Population Pyknosed Nuclei (%): 7
- molecule: "CN1CCN(c2ccc(Nc3c4ccccc4nc4ccccc34)cc2)CC1.Cl.Cl.O"
  Population Pyknosed Nuclei (%): 4
- molecule: "S=C(NCCCc1c[nH]cn1)NCCCN(Cc1ccc(Cl)c(Cl)c1)c1ccc(Br)cn1"
  Population Pyknosed Nuclei (%): 9
- molecule: "COc1cc(Nc2ncc3c(n2)-c2ccc(Cl)cc2C(c2c(F)cccc2OC)=NC3)ccc1C(=O)O"
  Population Pyknosed Nuclei (%): 9
- molecule: "COc1c(Nc2ccc(S(C)(=O)=O)nc2C)ncnc1OC1CCN(C(=O)OC(C)C)CC1"
  Population Pyknosed Nuclei (%): 9
- molecule: "CN1CCC(C(=O)c2cccc(NC(=O)c3c(F)cc(F)cc3F)n2)CC1"
  Population Pyknosed Nuclei (%): 7
- molecule: "CCCCC[C@H](O)/C=C/[C@H]1[C@H](O)CC(=O)[C@@H]1CCCCCCC(=O)O"
  Population Pyknosed Nuclei (%): 8
- molecule: "COc1cc2nc(N3CCN(C(=O)c4ccco4)CC3)nc(N)c2cc1OC.Cl [PRAZOSIN HYDROCHLORIDE]"
  Population Pyknosed Nuclei (%): 10
- molecule: "CC(C)(O)C(=O)N1CCN(c2ccc(C(F)(F)F)c(C3=C(c4c[nH]c5ccccc45)C(=O)NC3=O)c2)CC1"
  Population Pyknosed Nuclei (%): 14

Ref: ChEMBL document CHEMBL5058577
